- Target or system: Cyclin-dependent kinase 4/cyclin D1 (Homo sapiens)
- Sequence (P11802 whole entry): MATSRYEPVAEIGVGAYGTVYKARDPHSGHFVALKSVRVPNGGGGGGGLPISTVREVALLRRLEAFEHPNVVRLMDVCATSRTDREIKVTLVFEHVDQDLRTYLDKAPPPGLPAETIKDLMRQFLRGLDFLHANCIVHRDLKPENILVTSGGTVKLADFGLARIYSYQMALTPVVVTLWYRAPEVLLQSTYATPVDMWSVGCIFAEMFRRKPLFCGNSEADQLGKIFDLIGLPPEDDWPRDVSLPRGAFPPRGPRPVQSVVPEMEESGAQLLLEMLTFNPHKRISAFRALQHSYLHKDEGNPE
- Sequence (P24385 whole entry, further chain): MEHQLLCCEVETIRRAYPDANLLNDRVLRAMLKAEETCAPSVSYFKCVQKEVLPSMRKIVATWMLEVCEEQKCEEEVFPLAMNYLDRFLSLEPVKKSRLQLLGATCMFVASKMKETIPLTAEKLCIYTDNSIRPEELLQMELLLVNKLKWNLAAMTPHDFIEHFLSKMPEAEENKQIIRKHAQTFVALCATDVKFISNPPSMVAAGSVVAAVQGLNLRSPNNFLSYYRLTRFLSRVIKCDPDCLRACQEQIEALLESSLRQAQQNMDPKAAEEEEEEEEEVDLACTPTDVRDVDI
- Procedure summary: Inhibition of CDK4/Cyclin D1 assessed as inhibition of retinoblastoma susceptibility gene product phosphorylation
Listing of recorded pIC50 by entry.
The quantity pIC50 is defined as the negative base-10 logarithm of the molar concentration.

Below: 3 compounds and their reported pIC50.
Compound | pIC50
COc1ccc(CN/C=C2\C(=O)NC(=O)c3ccc(-c4ccccc4)cc32)cc1O | 8.00
COCCOc1ccc(CN/C=C2\C(=O)NC(=O)c3ccc(Br)cc32)cc1O | 7.40
CCCOc1ccc(CN/C=C2\C(=O)NC(=O)c3ccc(I)cc32)cc1O | 7.70

Here COc1ccc(C(C)N/C=C2\C(=O)NC(=O)c3ccc(Br)cc32)cc1O (stereo not drawn) was tested on Cyclin-dependent kinase 4/cyclin D1 (Homo sapiens), and its pIC50 came to 6.43

Item COc1ccc(CN/C=C2\C(=O)NC(=O)c3ccc(Br)cc32)cc1O was tested on Cyclin-dependent kinase 4/cyclin D1 (Homo sapiens); the reported pIC50 is 7.52

For the compound CCCOc1cnc(CN/C=C2\C(=O)NC(=O)c3ccc(I)cc32)cc1O , the measured pIC50 on Cyclin-dependent kinase 4/cyclin D1 (Homo sapiens) was 7.52
